- system: protein:farnesyl transferase (PFT), SF9 affinity purified rat FPT (Rattus norvegicus, UniProt Q02293+Q04631)
- Construct: made in house
- protocol: PFT (FPT) inhibitory activity, radiolabeled farnesyl pyrophosphate / biotinyl peptide streptavidin bead assay
- Assay type: biochemical
- recorded-conditions: HEPES buffer pH 7.4 without 5 mM potassium phosphate; read-out: IC50 (μm) Hepes
pIC50: −log10 of the molar value.
Consider the following molecules and their measured pIC50 readings.
assay-metric: pIC50

1. CC(C)S(=O)(=O)Cc1c(OCCc2cncn2Cc2ccc(C#N)cc2)ccc2c1CCCC2=O [Compound 29] | 9.30
2. COc1ccc(Cn2cncc2CCOc2ccc3c(c2)CCCC3=O)cc1C [Compound 12] | 7.62
3. CCCc1c(OCCc2cncn2Cc2ccccc2)ccc2c1CCCC2=O [Compound 2] | 5.86
4. N#Cc1ccc(Cn2cncc2CCOc2ccc3c(c2CS(=O)(=O)c2ccccn2)CCCC3=O)cc1 [Compound 28] | 9.52
5. O=C1CCCc2c1ccc(OCCc1cncn1Cc1ccccc1)c2CCc1ccccc1 [Compound 3] | 7.14
6. N#Cc1ccc(Cn2cncc2CCOc2ccc3c(c2CCc2ccccc2)CCCC3=O)cc1 [Compound 4] | 9.52

====

Consider the following compounds and their measured pIC50 readings.
- system: protein:farnesyl transferase (PFT), SF9 affinity purified rat FPT (Rattus norvegicus, UniProt Q02293+Q04631)
- Construct: made in house
- protocol: PFT (FPT) inhibitory activity, radiolabeled farnesyl pyrophosphate / biotinyl peptide streptavidin bead assay
- Format: biochemical
- recorded-conditions: HEPES buffer pH 7.4 with 5 mM potassium phosphate; read-out: IC50 (μm) Hepes ± 5 mM Phosphate
pIC50: −log10 of the molar value.
assay-metric: pIC50

1. COc1ccc(Cn2cncc2CCOc2ccc3c(c2)CCCC3=O)cc1C | 7.66
2. CCCc1c(OCCc2cncn2Cc2ccccc2)ccc2c1CCCC2=O | 6.06
3. O=C1CCCc2c1ccc(OCCc1cncn1Cc1ccccc1)c2CCc1ccccc1 | 7.28

This collection of values is drawn from patent US20030232790A1.
